assay: Test Example 3: odor of amino acid aqueous solutions before and after irradiation of ultraviolet at a peak wavelength of 222 nm (sensory evaluation); type: physicochemical; conditions: odor after 222 nm UV irradiation of the solution compared with odor of UV-irradiated human hand; sensory evaluation by six assessors
Readout Kind: Comparison with smells in Test example 1

// below: answered compounds
In [3]: df
Out[3]:
                                   compound              test_value
0      NCCCC[C@H](N)C(=O)O [Lysine, lysine]               Different
1   CC(C)C[C@H](N)C(=O)O [Leucine, leucine]  substantially the same
2  C[C@@H](O)[C@H](N)C(=O)O [Threonine, threonine]               Different
3  CSCC[C@H](N)C(=O)O [Methionine, methionine]  substantially the same
4      CC(C)[C@H](N)C(=O)O [Valine, valine]  substantially the same

query: # lookup: Comparison with smells in Test example 1 of N[C@@H](CSSC[C@H](N)C(=O)O)C(=O)O [Cystine]
result: Different

query: # lookup: Comparison with smells in Test example 1 of N[C@@H](CC(=O)O)C(=O)O [Aspartic acid, aspartic acid]
result: Different

query: # lookup: Comparison with smells in Test example 1 of CC[C@H](C)[C@H](N)C(=O)O [Isoleucine, isoleucine]
result: substantially the same

query: # lookup: Comparison with smells in Test example 1 of N[C@@H](Cc1ccc(O)cc1)C(=O)O [Tyrosine, tyrosine]
result: Different

query: # lookup: Comparison with smells in Test example 1 of N=C(N)NCCC[C@H](N)C(=O)O [Arginine, arginine]
result: Different

query: # lookup: Comparison with smells in Test example 1 of O=C(O)[C@@H]1CCCN1 [Proline, proline]
result: Different

query: # lookup: Comparison with smells in Test example 1 of N[C@@H](CCC(=O)O)C(=O)O [Glutamic acid, glutamic acid]
result: Different
